Test: Quantitative High-Throughput drug screen in 47 multiple myeloma cell lines against the NCATS MIPE library collection: L363_DSMZ cell viability assay (AID 1918984); further: nearly all actives have a fitted effect of over 40% in size
Settings: L363 myeloma viability, CellTiter-Glo ATP luminescence, 48 h; series mostly up to 45.8 µM
Inconclusive results are not listed. Activity calls are given as the source filed them. The call rests on the fitted dose curve; in most records, active means well fitted cell-killing curve with a large enough effect; inconclusive means small, poorly fitted or top-dose-only effect, or effect the other way; inactive means no such curve, though single readings can be large or run the other way.
Outcomes: t = active, f = inactive

* CCOP(=O)(OCC)C(C)NC(=O)N(CCCl)N=O (stereo not drawn) | f
* C[C@@H]1CC[C@@]2(OC1)O[C@H]1C[C@H]3[C@@H]4CC=C5C[C@@H](O[C@@H]6O[C@H](CO)[C@@H](O[C@@H]7O[C@@H](C)[C@H](O)[C@@H](O)[C@@H]7O)[C@H](O)[C@@H]6O[C@@H]6O[C@@H](C)[C@H](O)[C@@H](O)[C@@H]6O)CC[C@]5(C)[C@@H]4CC[C@]3(C)[C@@H]1[C@H]2C | t
* CC(C)N(CCNC(=O)CN1CCCC1=O)C(C)C | f
* COC1=C[C@@H]2[C@@H]3Cc4ccc(OC)c(O)c4[C@]2(CCN3C)CC1=O | t
* c1ccc(CCCN2CCN(CCOC(c3ccccc3)c3ccccc3)CC2)cc1 | f
* Cc1ccccc1-n1c(Cn2ncc3c(N)ncnc32)nc2cccc(C)c2c1=O | t
* COCC1(CO)C(=O)C2CCN1CC2 (stereo not drawn) | t
* O=C1C=CC[C@@H]2[C@H]3CCCN4CCC[C@@H](CN12)[C@@H]34 | f

The measured values listed here are drawn from PubChem BioAssay (NCATS).
